# SYSTEM_NAME: panel of 442 kinases (Homo sapiens, UniProt O94804)
# Construct: purchased KINOMEscan
# Sequence (O94804 whole entry): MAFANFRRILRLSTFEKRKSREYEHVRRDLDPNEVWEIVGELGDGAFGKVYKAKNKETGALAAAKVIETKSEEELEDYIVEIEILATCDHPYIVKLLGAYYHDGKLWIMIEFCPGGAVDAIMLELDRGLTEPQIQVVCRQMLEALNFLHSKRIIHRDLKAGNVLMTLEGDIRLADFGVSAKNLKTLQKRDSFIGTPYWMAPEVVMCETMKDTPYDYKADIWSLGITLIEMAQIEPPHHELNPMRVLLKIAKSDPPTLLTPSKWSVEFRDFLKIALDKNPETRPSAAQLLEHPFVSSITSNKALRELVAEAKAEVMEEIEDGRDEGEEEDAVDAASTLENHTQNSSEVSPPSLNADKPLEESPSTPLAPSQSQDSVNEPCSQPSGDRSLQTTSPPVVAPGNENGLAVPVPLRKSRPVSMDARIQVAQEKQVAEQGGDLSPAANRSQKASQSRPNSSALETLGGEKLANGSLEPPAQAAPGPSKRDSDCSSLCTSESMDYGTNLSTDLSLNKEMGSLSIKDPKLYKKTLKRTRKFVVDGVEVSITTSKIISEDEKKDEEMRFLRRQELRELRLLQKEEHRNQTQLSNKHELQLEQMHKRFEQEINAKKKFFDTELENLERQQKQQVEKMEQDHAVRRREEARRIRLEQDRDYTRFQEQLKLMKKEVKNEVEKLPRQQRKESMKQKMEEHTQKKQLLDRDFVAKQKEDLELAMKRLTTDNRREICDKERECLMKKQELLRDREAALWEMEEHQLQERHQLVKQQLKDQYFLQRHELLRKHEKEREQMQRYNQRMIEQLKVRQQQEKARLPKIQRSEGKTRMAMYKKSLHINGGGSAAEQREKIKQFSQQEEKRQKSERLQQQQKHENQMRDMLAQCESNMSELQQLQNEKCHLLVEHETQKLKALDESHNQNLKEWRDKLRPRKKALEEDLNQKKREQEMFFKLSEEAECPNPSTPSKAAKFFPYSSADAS
# Assay type: binding
# CONDITION_SET: Compound Concentration 10 µM
ASSAY_METRIC: KINOMEscan: LOK

Item COc1cc(C(=O)N2CCC(N3CCN(C)CC3)CC2)ccc1Nc1ncc2c(n1)N(C1CCCC1)c1ccccc1C(=O)N2C [Compound 25] : provide KINOMEscan: LOK
100

Item COc1cc(C(=O)N2CCC(N3CCN(C)CC3)CC2)ccc1Nc1ncc2c(n1)N1CCc3cccc(c31)C(=O)N2C [Compound 24] : provide KINOMEscan: LOK
70

Item CCOc1cc(C(=O)N2CCC(N3CCN(C)CC3)CC2)ccc1Nc1ncc2c(n1)N(C1CCCC1)c1ccccc1C(=O)N2C [Compound 26] : provide KINOMEscan: LOK
100

Item COc1cc(C(=O)N2CCC(N3CCN(C)CC3)CC2)ccc1Nc1ncc2c(n1)N(C)c1ccccc1C(=O)N2C [15 (LRRK2-IN-1)] : provide KINOMEscan: LOK
100
